endpointLabel: melting point

GET /values?readout=melting point&item= CC(=O)c1nn(-c2ccc(S(=O)(=O)c3ccc(-n4nc(C(C)=O)s/c4=N\N=C(/C)c4sc5nc(-c6ccc(C)cc6)cn5c4C)cc3)cc2)/c(=N/N=C(\C)c2sc3nc(-c4ccc(C)cc4)cn3c2C)s1 [Compound 12]
> 300 °C

What about this molecule? CC(=O)c1nn(-c2ccc(Cl)cc2)c(=NN=C(C)c2sc3nc(-c4ccc(C)cc4)cn3c2C)s1 [Compound 6c]
192 to 194 °C

Same lookup for CCOC(=O)c1nn(-c2ccc(C)cc2)c(=NN=C(C)c2sc3nc(-c4ccc(C)cc4)cn3c2C)s1 [Compound 6e] , please.
117 to 119 °C

Also check CC(=NN=c1sc(C(=O)Nc2ccccc2)nn1-c1ccccc1)c1sc2nc(-c3ccc(C)cc3)cn2c1C [Compound 6g]
209 to 211 °C

Cool, now CCOC(=O)c1nn(-c2ccccc2)c(=NN=C(C)c2sc3nc(-c4ccc(C)cc4)cn3c2C)s1 [Compound 6d]
235 to 237 °C

What do we get for CSC(=S)N/N=C(\C)c1sc2nc(-c3ccc(C)cc3)cn2c1C [Compound 3] ?
182 to 184 °C

Likewise for COc1ccc(-n2nc(C(C)=O)sc2=NN=C(C)c2sc3nc(-c4ccc(C)cc4)cn3c2C)cc1 [Compound 6b] ?
216 to 218 °C

Also, CC(=O)c1nn(-c2ccc(C)cc2)c(=NN=C(C)c2sc3nc(-c4ccc(C)cc4)cn3c2C)s1 [Compound 6a] please.
220 to 222 °C

Okay, and CC(=NN=c1sc(-c2ccccc2)nn1-c1ccccc1)c1sc2nc(-c3ccc(C)cc3)cn2c1C [Compound 6i] ?
273 to 275 °C

Ok, now CC(=NN=c1sc(C(=O)Nc2ccccc2)nn1-c1ccc([N+](=O)[O-])cc1)c1sc2nc(-c3ccc(C)cc3)cn2c1C [Compound 6h]
241 to 243 °C

Just for reference, paper PMC7663531 is where these values come from.
